Tested on: HS 578T breast
Experimental details: NCI tumour cell line growth inhibition, 48 h
Record form. Attribute: TGI. Fill in for each entry.
Numbers only, in µM.

Guide cases for TGI, answers given:
{"columns": ["Molecule", "Unit abbrev", "Value"],
 "data": [
  ["COC(=O)[C@]12CCC(C)(C)C[C@H]1C1=CC[C@@H]3[C@@]4(C)CC[C@H](OC5OC(CO)C(O)C(O)C5OC5OC(CO)C(O)C(O)C5O)C(C)(C)[C@@H]4CC[C@@]3(C)[C@]1(C)CC2 (some centres not stated)", "µM", 56.8],
  ["S=C=NCc1ccccc1", "µM", 53.6]
]}

# context switch: different molecule, same TGI
Task item: Query (molecule): `CC1(C)N=C(N)N=C(N)N1c1cccc(CCCCc2ccccc2)c1` ; field requested: TGI
Reply: 28.5

---

Tested on: PC-3 prostate
Experimental details: NCI tumour cell line growth inhibition, 48 h
Would you please tag the item TRUE when its TGI is 30 µM or above, and FALSE when it is below?

Sample answers from the record:
{"columns": ["Compound", "Cat"],
 "data": [
  ["Cc1ccc(N=Nc2c(N)nn(-c3ccccc3)c2N)cc1", "FALSE"],
  ["OCCNc1ncnc2c1ncn2C1OC(CO)C(O)C1O (stereo unspecified)", "TRUE"],
  ["NC(CSc1nc2ccccn2c1[N+](=O)[O-])C(=O)O (stereo unspecified)", "TRUE"],
  ["CC1(O)CC2(O)C=CC3=C(C(=O)c4cccc(O)c4C3=O)C2(O)C(=O)C1O (stereo unspecified)", "FALSE"]
]}

Task item: Given `COc1cc2nc(-c3ccccc3F)[nH]c(=O)c2cc1OC` , state whether its TGI is at least 30 µM.
Reply: TRUE

Task item: Given COc1ccccc1N1C(=O)CS(=O)(=O)C1c1cccc(Oc2ccccc2)c1 (stereo unspecified) , state whether its TGI is at least 30 µM.
Reply: FALSE

Task item: Given `CC(C)=CCC[C@](C)(O[C@@H]1O[C@H](CO)[C@@H](O)[C@H](O)[C@H]1O)[C@H]1CC[C@]2(C)[C@@H]1[C@H](O)C[C@@H]1[C@@]3(C)CC[C@H](O)C(C)(C)[C@@H]3[C@@H](O[C@@H]3O[C@H](CO)[C@@H](O)[C@H](O)[C@H]3O)C[C@]12C` , state whether its TGI is at least 30 µM.
Reply: TRUE

Task item: Given `CCCN(CCC)c1cc2c(cc1F)c(=O)c(C(=O)O)cn2-c1ccc(N2CCN(C)CC2)cn1` , state whether its TGI is at least 30 µM.
Reply: TRUE

Task item: Given `Cc1cc(C)n(-c2nc3ccccc3c(=O)n2-c2ccccc2)n1` , state whether its TGI is at least 30 µM.
Reply: TRUE

Task item: Given `COc1ccc2[nH]c(=O)c(/C=C/C(=O)/C=C/c3ccc(O)c(OC)c3)cc2c1` , state whether its TGI is at least 30 µM.
Reply: FALSE

---

System: A549 NSCLC
Experimental details: NCI tumour cell line growth inhibition, 48 h
Property name: GI50

Guide cases for GI50, answers given:
{"columns": ["Smiles data", "GI50"],
 "data": [
  ["CO[C@H]1C[C@@H]2CC[C@@H](C)[C@@](O)(O2)C(=O)C(=O)N2CCCC[C@H]2C(=O)O[C@H]([C@H](C)C[C@@H]2CC[C@@H](OP(C)(C)=O)[C@H](OC)C2)CC(=O)[C@H](C)/C=C(\\C)[C@@H](O)[C@@H](OC)C(=O)[C@H](C)C[C@H](C)/C=C/C=C/C=C/1C", "< 10 nM"],
  ["O=C1c2cc3c(cc2[C@@H]2[C@H]1c1ccc([N+](=O)[O-])cc1C(=O)N2CCCCl)OCO3", "< 10 nM"],
  ["COC(=O)c1ccc2c(c1)C(=O)c1c-2n(CCCN)c(=O)c2cc([N+](=O)[O-])ccc12", "< 30 nM"]
]}

# context switch: different compound, same GI50
Task item: Query (compound): `CCOC(=O)c1ccc(Nc2sc(C(=O)c3cccc([N+](=O)[O-])c3)c(N)c2C#N)cc1` ; field requested: GI50
Reply: 230 nM
